Biological target: GSK3B (human) (UniProt P49841)
Sequence (P49841 whole entry, looked up): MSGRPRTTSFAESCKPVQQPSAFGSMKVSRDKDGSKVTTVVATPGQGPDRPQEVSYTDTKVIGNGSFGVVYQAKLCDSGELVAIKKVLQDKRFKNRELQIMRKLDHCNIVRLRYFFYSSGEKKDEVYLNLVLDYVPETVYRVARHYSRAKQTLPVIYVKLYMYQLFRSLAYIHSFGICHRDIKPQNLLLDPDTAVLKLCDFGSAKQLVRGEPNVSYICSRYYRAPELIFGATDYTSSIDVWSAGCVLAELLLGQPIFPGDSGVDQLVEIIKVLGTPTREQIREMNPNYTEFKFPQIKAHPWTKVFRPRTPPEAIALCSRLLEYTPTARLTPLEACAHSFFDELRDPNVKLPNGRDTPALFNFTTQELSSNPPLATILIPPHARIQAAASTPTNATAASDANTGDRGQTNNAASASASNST
Experiment: radiometric filter-binding kinase assay
Conditions: compound 0.1 µM
MEASUREMENT TYPE: residual activity (%)
Entry rule: numbers only, all in %.

Form: compound = COc1cc(O)c2c(c1)/C=C/C[C@H](O)[C@H](O)C(=O)/C=C\C[C@H](C)OC2=O ; residual activity = 102

GET /value?item= Cn1c(=O)c2c(ncn2C)n(C)c1=O &field=residual activity returns 102

* * *

Overview of reported residual activity across a group of molecules:
Target: MAP3K7 TAB1 (human) (UniProt Q15750+O43318)
Sequence (O43318 whole entry, looked up): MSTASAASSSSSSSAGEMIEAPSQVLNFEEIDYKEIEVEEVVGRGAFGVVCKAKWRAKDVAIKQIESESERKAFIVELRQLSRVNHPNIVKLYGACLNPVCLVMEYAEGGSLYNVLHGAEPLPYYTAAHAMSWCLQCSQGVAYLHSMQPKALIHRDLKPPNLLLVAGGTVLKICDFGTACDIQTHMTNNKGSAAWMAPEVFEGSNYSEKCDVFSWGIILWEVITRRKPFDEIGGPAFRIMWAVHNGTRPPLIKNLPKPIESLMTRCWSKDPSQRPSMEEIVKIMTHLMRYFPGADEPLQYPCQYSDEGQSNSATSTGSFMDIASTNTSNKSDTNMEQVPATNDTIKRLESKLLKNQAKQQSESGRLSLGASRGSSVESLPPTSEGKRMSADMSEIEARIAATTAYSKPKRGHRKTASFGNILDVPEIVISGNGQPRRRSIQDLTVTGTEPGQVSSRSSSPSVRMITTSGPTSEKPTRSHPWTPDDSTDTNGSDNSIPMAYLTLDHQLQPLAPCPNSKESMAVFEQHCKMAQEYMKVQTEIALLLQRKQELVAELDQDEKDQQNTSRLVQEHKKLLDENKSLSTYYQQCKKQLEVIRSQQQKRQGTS
Sequence (Q15750 whole entry, looked up): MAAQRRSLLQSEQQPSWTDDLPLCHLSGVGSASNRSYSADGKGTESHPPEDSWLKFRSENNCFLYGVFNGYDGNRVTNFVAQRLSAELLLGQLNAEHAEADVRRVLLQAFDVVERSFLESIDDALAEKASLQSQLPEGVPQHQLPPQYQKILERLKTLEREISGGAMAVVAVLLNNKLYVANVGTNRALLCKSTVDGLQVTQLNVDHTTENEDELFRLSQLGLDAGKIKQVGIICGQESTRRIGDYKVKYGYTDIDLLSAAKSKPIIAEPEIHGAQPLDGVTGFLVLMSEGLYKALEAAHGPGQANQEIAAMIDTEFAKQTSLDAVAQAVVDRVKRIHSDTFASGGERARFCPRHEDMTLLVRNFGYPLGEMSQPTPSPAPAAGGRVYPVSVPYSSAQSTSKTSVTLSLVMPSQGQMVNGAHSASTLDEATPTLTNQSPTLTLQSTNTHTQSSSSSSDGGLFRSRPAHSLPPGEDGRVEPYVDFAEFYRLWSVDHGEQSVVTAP
Test: radiometric filter-binding kinase assay
Settings: compound 1.0 µM
// units = %; emit number, no label

Form: molecule = NC(=O)c1cc(-c2ccnc(NC3CCCCC3)c2)nc(N2CCNCC2)c1 ; residual activity = 100

Measured residual activity, NCC(=O)Nc1ccc(-n2nc(C(F)(F)F)cc2-c2ccc3c(ccc4ccccc43)c2)cc1 : 74

Please fill in: residual activity reported for CN(C)C/C=C/C(=O)Nc1cccc(C(=O)Nc2ccc(Nc3nccc(-c4cccnc4)n3)cc2)c1 = 39

Just so you know, measured residual activity for NC(=O)c1cc2c(-c3cccc(-c4ccccc4)c3)cnc(N)c2s1 came out at 8

Could you now look at the following molecule, please?
// sample COc1ccc(N(C(=O)Nc2c(C)cccc2C)c2cc(Nc3ccc(N4CCN(C)CC4)cc3)ncn2)c(OC)c1 , its residual activity was 84

All figures here come from the kinase profiling compilation of Christmann-Franck et al. (2016).
